Test system: Plasmodium falciparum
protocolDetails: Primary screen in NF54 nanoGlo assay, in single point, at 2uM, 72h
Type: functional, Erythrocyte
conditionContext: timepoint 72 hour
Hit rate of the full screen: of about 150,000 compounds, about 540 (0.36%) showed an effect of 50% or more. The sample as a whole holds a higher share of strong results than the screen did.
measuredParameter: % Inhibition (%)
The reply should be a number in %, with the unit left off.

c1ccc2c(CN3CCCCCC3)c[nH]c2c1 | 5
Cc1oncc1C(=O)N1C[C@H](c2cc(F)cc(F)c2)[C@@H]2[C@H]1C1CCN2CC1 | -4
CCOc1ccc(NC(=O)CN2CC=C(c3cnn(C)c3)CC2)cc1 | -9
O=C(NCc1ccccc1)N1Cc2ccccc2-n2cccc2[C@H]1c1ccccc1 | -9
CCOc1ccccc1NC(=O)CN1CC=C(c2cnn(C)c2)CC1 | -1
CN1CC[C@]2(CCN(c3ccnc4ccsc34)C2)C1 | 98
COc1ccc(-c2csc(-n3cc(C4=CCN(CCO)CC4)cn3)n2)cc1 | 50
COc1ccc2c(c1)OC[C@@]1(C(=O)O)CN(CCC(F)(F)F)C[C@@H]21 | 3
CN(C)C1(CNc2ccc(C#N)c(Cl)c2)CCOCC1 | -5
C=CCCC(CN1C[C@H]2CC=CC[C@H]2C1)Oc1ncc(F)cn1 (stereo partly drawn) | 75

Form: compound = "CC(C)(N)Cc1ccc(C(F)(F)F)cc1" ; % Inhibition = 1

Form: compound = "CC(C)c1ncc(C(=O)N[C@H]2CN3CCC2CC3)cn1" ; % Inhibition = 2

Form: compound = CN(C(=O)CCC(F)(F)F)C1CC2CCC(C1)N2 (stereo not drawn) ; % Inhibition = -19

Form: compound = "CCc1cc(CN[C@@H](C)Cc2ccc(F)cc2)on1" ; % Inhibition = -5

// data source = ChEMBL document CHEMBL4888484
